FYI, the data here is from patent US10301295B2.

Each record here notes measured pest or weed control at 250 g/ha.
- Test system: Echinochloa crus-galli (ECHCG)
- TEST_SUMMARY: Glasshouse assay for herbicidal activity, pre-/post-emergence (percentage phytotoxicity)
- Format: in vivo
- TEST_CONTEXT: Echinochloa crus-galli, post-emergence, 360 h, Rate 250 g/ha; post-emergence; visual assessment 15 DAA; 100%=total damage, 0%=no damage; read-out: Post-emergence herbicidal activity (percentage phytotoxicity), ECHCG POST
Give your result as the value with the unit written after it.

Past entries and their recorded results:
Give pest or weed control at 250 g/ha; test system Echinochloa crus-galli (ECHCG); compound Cc1cc(C)c(C2C(=O)CC(CCNC(=O)NC(=O)c3c(F)cc(Cl)cc3F)C2=O)c(C)c1 (centres unmarked)
90%

Give pest or weed control at 250 g/ha; test system Echinochloa crus-galli (ECHCG); compound Cc1cc(C)c(C2C(=O)CC(CCNC(=O)NC(=O)c3cc(F)ccc3C(F)(F)F)C2=O)c(C)c1 (centres unmarked)
80%

Give pest or weed control at 250 g/ha; test system Echinochloa crus-galli (ECHCG); compound Cc1cc(C)c(C2C(=O)CC(CCNC(=O)Nc3ccccn3)C2=O)c(C)c1.Cl (centres unmarked)
100%

Continuing:
Give pest or weed control at 250 g/ha; test system Echinochloa crus-galli (ECHCG); compound Cc1cc(C)c(C2C(=O)CC(CCNc3ccc([N+](=O)[O-])cc3C(F)(F)F)C2=O)c(C)c1 (centres unmarked)
70%

Give pest or weed control at 250 g/ha; test system Echinochloa crus-galli (ECHCG); compound Cc1cc(C)c(C2C(=O)CC(CCNS(=O)(=O)c3cccs3)C2=O)c(C)c1 (centres unmarked)
20%

Give pest or weed control at 250 g/ha; test system Echinochloa crus-galli (ECHCG); compound Cc1cc(C)c(C2C(=O)CC(CCNC(=O)NO)C2=O)c(C)c1 (centres unmarked)
10%

Give pest or weed control at 250 g/ha; test system Echinochloa crus-galli (ECHCG); compound COc1ccc(S(=O)(=O)NCCC2CC(=O)C(c3c(C)cc(C)cc3C)C2=O)cc1 (centres unmarked)
40%

Give pest or weed control at 250 g/ha; test system Echinochloa crus-galli (ECHCG); compound CC(=NOCc1ccccc1)C(=O)NCCC1CC(=O)C(c2c(C)cc(-n3cc(Cl)cn3)cc2C)C1=O (centres unmarked)
60%
